Reference for the values: ChEMBL document CHEMBL1131313

studyTarget: D(2) dopamine receptor (Rattus norvegicus, UniProt P61169)
Sequence (P61169 whole entry): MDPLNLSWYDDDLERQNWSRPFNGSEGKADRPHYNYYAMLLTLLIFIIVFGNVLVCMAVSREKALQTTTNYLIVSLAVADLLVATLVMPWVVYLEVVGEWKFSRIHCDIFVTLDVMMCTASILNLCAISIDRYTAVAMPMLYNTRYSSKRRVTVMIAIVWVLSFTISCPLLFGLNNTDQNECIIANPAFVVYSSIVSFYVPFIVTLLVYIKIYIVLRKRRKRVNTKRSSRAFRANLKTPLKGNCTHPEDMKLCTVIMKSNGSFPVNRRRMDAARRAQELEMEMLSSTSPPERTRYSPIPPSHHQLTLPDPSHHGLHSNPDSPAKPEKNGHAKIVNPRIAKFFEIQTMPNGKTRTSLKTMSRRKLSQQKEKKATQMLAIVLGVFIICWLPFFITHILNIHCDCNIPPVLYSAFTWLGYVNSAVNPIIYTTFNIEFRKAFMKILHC
assayExplanation: In vitro binding affinity against Dopamine receptor D2 in rat striatum membrane using [3H]raclopride as radioligand
Ki for assorted compounds
assayMetric: Ki

> print(dat)
                                   smilesstr  measvalue
 1  O=C1CC(=C(c2ccccc2)c2ccccc2)C(=O)N1CCN1CCN(c2cccc(C(F)(F)F)c2)CC1  > 1000 nM
 2  O=C1CC(=C(c2ccccc2)c2ccccc2)C(=O)N1CN1CCN(c2cccc(C(F)(F)F)c2)CC1  > 1000 nM
 3  COc1ccccc1N1CCN(CN2C(=O)CC(=C(c3ccccc3)c3ccccc3)C2=O)CC1  > 1000 nM
 4  O=C1CC(=C(c2ccccc2)c2ccccc2)C(=O)N1CCCN1CCN(c2ccc(F)cc2)CC1  > 1000 nM
 5  O=C1CC(=C(c2ccccc2)c2ccccc2)C(=O)N1CN1CCN(c2ccccc2)CC1  > 1000 nM
 6  COc1ccccc1N1CCN(CCN2C(=O)CC(=C(c3ccccc3)c3ccccc3)C2=O)CC1     167 nM
 7  O=C1CC(=C(c2ccccc2)c2ccccc2)C(=O)N1CN1CCN(c2cccc(Cl)c2)CC1  > 1000 nM
 8  O=C1CC(=C(c2ccccc2)c2ccccc2)C(=O)N1CCN1CCN(c2ccc(F)cc2)CC1  > 1000 nM
 9  COc1ccccc1N1CCN(CCCCN2C(=O)CC(=C(c3ccccc3)c3ccccc3)C2=O)CC1  > 1000 nM
10  O=C1CC(=C(c2ccccc2)c2ccccc2)C(=O)N1CN1CCN(c2ccc(F)cc2)CC1  > 1000 nM
11  COc1ccccc1N1CCN(CCCN2C(=O)CC(=C(c3ccccc3)c3ccccc3)C2=O)CC1     156 nM
12  O=C1CC(=C(c2ccccc2)c2ccccc2)C(=O)N1CCN1CCN(c2ccccc2)CC1  > 1000 nM
13  O=C1CC(=C(c2ccccc2)c2ccccc2)C(=O)N1CCCCN1CCN(c2cccc(Cl)c2)CC1     367 nM
14  O=C1CC(=C(c2ccccc2)c2ccccc2)C(=O)N1CCCCN1CCN(c2ccc(F)cc2)CC1     351 nM
15  O=C1CC(=C(c2ccccc2)c2ccccc2)C(=O)N1CCCN1CCN(c2ccccc2)CC1  > 1000 nM
16  O=C1CC(=C(c2ccccc2)c2ccccc2)C(=O)N1CCN1CCN(c2cccc(Cl)c2)CC1  > 1000 nM

---

studyTarget: UniProt P19327
Sequence (P19327 whole entry): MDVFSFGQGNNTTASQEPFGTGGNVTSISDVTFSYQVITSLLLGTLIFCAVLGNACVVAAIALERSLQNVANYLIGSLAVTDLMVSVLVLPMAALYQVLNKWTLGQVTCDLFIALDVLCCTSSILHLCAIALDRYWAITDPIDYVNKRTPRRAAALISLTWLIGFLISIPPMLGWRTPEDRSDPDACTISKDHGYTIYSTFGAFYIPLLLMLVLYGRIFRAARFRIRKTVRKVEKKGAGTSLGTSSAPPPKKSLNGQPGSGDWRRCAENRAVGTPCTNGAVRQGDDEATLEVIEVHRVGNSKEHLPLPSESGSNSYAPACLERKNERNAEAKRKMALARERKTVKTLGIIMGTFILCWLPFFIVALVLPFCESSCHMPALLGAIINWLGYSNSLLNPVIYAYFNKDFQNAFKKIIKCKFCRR
pKi: −log10 of the molar value.
pKi for assorted compounds
assayMetric: pKi

> print(dat)
                                   smilesstr     studytarget  measvalue
 1  COc1ccccc1N1CCN(CN2C(=O)CC(=C(c3ccccc3)c3ccccc3)C2=O)CC1  UniProt P19327       7.03
 2  O=C1CC(=C(c2ccccc2)c2ccccc2)C(=O)N1CN1CCN(c2ccc(F)cc2)CC1  UniProt P19327     < 6.00
 3  O=C1CC(=C(c2ccccc2)c2ccccc2)C(=O)N1CCCN1CCN(c2ccc(F)cc2)CC1  UniProt P19327     < 6.00
 4  O=C1CC(=C(c2ccccc2)c2ccccc2)C(=O)N1CCCN1CCN(c2cccc(C(F)(F)F)c2)CC1  UniProt P19327     < 6.00
 5  O=C1CC(=C(c2ccccc2)c2ccccc2)C(=O)N1CCN1CCN(c2ccccc2)CC1  UniProt P19327     < 6.00
 6  O=C1CC(=C(c2ccccc2)c2ccccc2)C(=O)N1CCCN1CCN(c2ccccc2)CC1  UniProt P19327     < 6.00
 7  O=C1CC(=C(c2ccccc2)c2ccccc2)C(=O)N1CCCN1CCN(c2cccc(Cl)c2)CC1  UniProt P19327       6.90
 8  COc1ccccc1N1CCN(CCCCN2C(=O)CC(=C(c3ccccc3)c3ccccc3)C2=O)CC1  UniProt P19327       7.87
 9  O=C1CC(=C(c2ccccc2)c2ccccc2)C(=O)N1CCN1CCN(c2cccc(C(F)(F)F)c2)CC1  UniProt P19327     < 6.00
10  O=C1CC(=C(c2ccccc2)c2ccccc2)C(=O)N1CCN1CCN(c2ccc(F)cc2)CC1  UniProt P19327     < 6.00

---

studyTarget: D(2) dopamine receptor (Rattus norvegicus)
assayExplanation: In vitro binding affinity against Dopamine receptor D2 in rat striatum membrane using [3H]raclopride as radioligand
pKi: −log10 of the molar value.
pKi for assorted compounds
assayMetric: pKi

> print(dat)
                                  smilesstr  operatorsymbol  measvalue
1  O=C1CC(=C(c2ccccc2)c2ccccc2)C(=O)N1CCCN1CCN(c2cccc(Cl)c2)CC1               =       6.10
2  O=C1CC(=C(c2ccccc2)c2ccccc2)C(=O)N1CCCN1CCN(c2cccc(C(F)(F)F)c2)CC1               <       6.00
3  O=C1CC(=C(c2ccccc2)c2ccccc2)C(=O)N1CCCCN1CCN(c2ccccc2)CC1               <       6.00
4  O=C1CC(=C(c2ccccc2)c2ccccc2)C(=O)N1CCCCN1CCN(c2cccc(C(F)(F)F)c2)CC1               =       6.16

---

studyTarget: Adrenergic receptor alpha-1 (Rattus norvegicus, UniProt P15823+P23944+P43140)
assayExplanation: In vitro binding affinity against Alpha-1 adrenergic receptor in rat cerebral cortex membrane using [3H]prazosin as radioligand
Type: cell membranes
Criterion: Ki strictly under 60 nM. Met: condition met. Not met: condition not met.

> print(dat)
                                   smilesstr              class
 1  O=C1CC(=C(c2ccccc2)c2ccccc2)C(=O)N1CCN1CCN(c2cccc(Cl)c2)CC1  condition not met
 2  O=C1CC(=C(c2ccccc2)c2ccccc2)C(=O)N1CCCN1CCN(c2ccc(F)cc2)CC1      condition met
 3  O=C1CC(=C(c2ccccc2)c2ccccc2)C(=O)N1CCN1CCN(c2ccccc2)CC1  condition not met
 4  O=C1CC(=C(c2ccccc2)c2ccccc2)C(=O)N1CN1CCN(c2cccc(Cl)c2)CC1  condition not met
 5  O=C1CC(=C(c2ccccc2)c2ccccc2)C(=O)N1CN1CCN(c2ccc(F)cc2)CC1  condition not met
 6  O=C1CC(=C(c2ccccc2)c2ccccc2)C(=O)N1CCCCN1CCN(c2ccccc2)CC1      condition met
 7  O=C1CC(=C(c2ccccc2)c2ccccc2)C(=O)N1CCCCN1CCN(c2ccc(F)cc2)CC1      condition met
 8  COc1ccccc1N1CCN(CCCCN2C(=O)CC(=C(c3ccccc3)c3ccccc3)C2=O)CC1      condition met
 9  COc1ccccc1N1CCN(CN2C(=O)CC(=C(c3ccccc3)c3ccccc3)C2=O)CC1  condition not met
10  O=C1CC(=C(c2ccccc2)c2ccccc2)C(=O)N1CN1CCN(c2cccc(C(F)(F)F)c2)CC1  condition not met
11  O=C1CC(=C(c2ccccc2)c2ccccc2)C(=O)N1CCN1CCN(c2cccc(C(F)(F)F)c2)CC1  condition not met
12  O=C1CC(=C(c2ccccc2)c2ccccc2)C(=O)N1CCCN1CCN(c2ccccc2)CC1      condition met
13  O=C1CC(=C(c2ccccc2)c2ccccc2)C(=O)N1CCN1CCN(c2ccc(F)cc2)CC1  condition not met
14  O=C1CC(=C(c2ccccc2)c2ccccc2)C(=O)N1CCCCN1CCN(c2cccc(Cl)c2)CC1      condition met
15  O=C1CC(=C(c2ccccc2)c2ccccc2)C(=O)N1CCCN1CCN(c2cccc(C(F)(F)F)c2)CC1  condition not met
16  O=C1CC(=C(c2ccccc2)c2ccccc2)C(=O)N1CN1CCN(c2ccccc2)CC1  condition not met
17  O=C1CC(=C(c2ccccc2)c2ccccc2)C(=O)N1CCCN1CCN(c2cccc(Cl)c2)CC1      condition met
18  COc1ccccc1N1CCN(CCCN2C(=O)CC(=C(c3ccccc3)c3ccccc3)C2=O)CC1      condition met
19  COc1ccccc1N1CCN(CCN2C(=O)CC(=C(c3ccccc3)c3ccccc3)C2=O)CC1  condition not met
